Origin of measurements: patent US20240116985A1

Biological target: B-cat-Halo (beta-catenin HaloTag NanoBRET construct expressed in HEK293 cells) (UniProt P35222)
Sequence (P35222 whole entry): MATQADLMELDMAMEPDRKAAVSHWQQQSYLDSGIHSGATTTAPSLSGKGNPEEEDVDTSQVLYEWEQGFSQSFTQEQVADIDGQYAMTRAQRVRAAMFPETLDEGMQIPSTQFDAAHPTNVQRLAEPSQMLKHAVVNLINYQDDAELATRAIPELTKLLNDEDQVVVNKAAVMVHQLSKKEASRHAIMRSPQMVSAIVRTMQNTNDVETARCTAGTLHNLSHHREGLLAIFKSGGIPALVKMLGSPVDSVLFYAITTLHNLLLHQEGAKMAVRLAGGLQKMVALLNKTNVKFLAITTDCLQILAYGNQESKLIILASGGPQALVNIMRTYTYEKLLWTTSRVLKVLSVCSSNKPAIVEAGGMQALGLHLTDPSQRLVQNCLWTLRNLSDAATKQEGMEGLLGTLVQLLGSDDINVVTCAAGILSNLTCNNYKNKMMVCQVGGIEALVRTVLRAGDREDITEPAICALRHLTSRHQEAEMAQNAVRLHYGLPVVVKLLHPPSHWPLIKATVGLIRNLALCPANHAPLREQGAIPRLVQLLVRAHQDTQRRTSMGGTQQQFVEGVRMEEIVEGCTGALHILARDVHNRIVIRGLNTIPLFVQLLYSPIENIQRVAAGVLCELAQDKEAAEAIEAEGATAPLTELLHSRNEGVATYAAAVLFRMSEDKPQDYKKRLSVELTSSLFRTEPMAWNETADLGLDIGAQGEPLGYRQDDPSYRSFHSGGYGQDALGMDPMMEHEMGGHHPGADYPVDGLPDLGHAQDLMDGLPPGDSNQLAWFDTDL
Test: NanoBRET in HEK293 cells, Bcat-Halo + TCF4-Luc, peptide at 10 uM
Starred links: 1 amine or outer side, 2 acyl side, 3 side chain; linkers in the order of their positions; H or OH if unused. Positions of bridges follow the written chain, without caps; N, C: chain ends. Non-standard residues stand in square brackets, D forms with d. Primed or numbered codes have the meaning given here. B5(5) = 2,2-bis(4-pentenyl)glycine, 2-amino-2-(pent-4-en-1-yl)hept-6-enoic acid (stitching residue), C=CCCCC(CCCC=C)(N[*:1])C(=O)[*:2]; PyrS2 = (S)-3-amino-1-((pent-4-en-1-yloxy)carbonyl)pyrrolidine-3-carboxylic acid, C=CCCCOC(=O)N1CC[C@@](N[*:1])(C(=O)[*:2])C1; B5(13) = 2-amino-2-(pent-4-en-1-yl)hept-6-enoic acid (two alkene chains), C=CCCCC(CCCC=C)(N[*:1])C(=O)[*:2]; B5 = 2-amino-2-(pent-4-en-1-yl)hept-6-enoic acid, C=CCCCC(CCCC=C)(N[*:1])C(=O)[*:2]; Trp(5-F) = N[C@@H](Cc1c[nH]c2ccc(F)cc12)C(=O)O; Trp(1-Me) = Cn1cc(C[C@H](N)C(=O)O)c2ccccc21; Phe(2-Cl) = N[C@@H](Cc1ccccc1Cl)C(=O)O; Phe(2-OMe) = COc1ccccc1C[C@H](N)C(=O)O; 1Nal = N[C@@H](Cc1cccc2ccccc12)C(=O)O; Bta = N[C@@H](Cc1csc2ccccc12)C(=O)O; αAllylPro = C=CC[C@@]1(C(=O)O)CCCN1; tBuAla = CC(C)(C)C[C@H](N)C(=O)O; 3Thi = N[C@@H](Cc1ccsc1)C(=O)O
Simple rule here: NanoBRET % inh @ 10 uM less than 20% is met, otherwise not met.

# binder, class.label
data = [
    ("Ac-[αAllylPro]F[tBuAla][B5]DDAADN[PyrS2][3Thi][Bta]Q-NH2 (staple 1-4, 4-11) [I-797]", "met"),
    ("Ac-[αAllylPro]D[tBuAla][B5(13)]DDAAFN[PyrS2][Phe(2-OMe)][Bta]H-NH2 (staple 1-4, 4-11) [I-781]", "not met"),
    ("Ac-[αAllylPro]D[tBuAla][B5(5)]DDAAFN[PyrS2][Phe(2-Cl)][Bta]H-NH2 (staple 1-4, 4-11) [I-784]", "not met"),
    ("Ac-[αAllylPro]D[tBuAla][B5]DDAAFN[PyrS2][3Thi][Trp(5-F)]H-NH2 (staple 1-4, 4-11) [I-800]", "met"),
    ("Ac-[αAllylPro]D[tBuAla][B5(5)]DDAAFN[PyrS2][3Thi][Bta]-NH2 (staple 1-4, 4-11) [I-785]", "not met"),
    ("Ac-[αAllylPro]D[tBuAla][B5(5)]DDAAFN[PyrS2][3Thi][1Nal]H-NH2 (staple 1-4, 4-11) [I-789]", "met"),
    ("Ac-[αAllylPro]D[tBuAla][B5]DDAAFN[PyrS2][3Thi][Trp(1-Me)]H-NH2 (staple 1-4, 4-11) [I-799]", "met"),
]
